- assay-info: NOVARTIS: Cytotoxicity against human hepatocellular carcinoma cell line (Huh7)
- Format: toxicity, cell-based, Huh-7
- setup-conditions: Huh7 cells (hepatocellular carcinoma cell line)

compound: OC1=C2C(=Nc3ccccc3SC2c2ccccc2)c2ccccc21 (stereo not given)
CC50: 27.1 µM
//
compound: Cc1ccc2nc(Nc3nc(O)c4ccccc4n3)nc(C)c2c1
CC50: > 10 µM
//
compound: CCCC(=O)Oc1ccccc1-c1nc2cc(C)ccn2c1NC(C)(C)CC(C)(C)C
CC50: > 100 µM
//
compound: C[n+]1c(/C=C/c2ccc(Cl)c(Cl)c2)ccc2ccccc21
CC50: > 10 µM
//
compound: COc1ccc(C2c3cccn3-c3ccccc3N2C(=O)CN(C(=O)Nc2ccc(C(F)(F)F)cc2)C2CC2)cc1 (stereo not given)
CC50: > 100 µM
//
compound: S=C(NCc1ccco1)NC1CC2CCC(C1)N2Cc1ccccc1 (stereo not given)
CC50: > 100 µM
//
compound: CCCCC(=O)Oc1ccccc1-c1nc2ccccn2c1NC(C)(C)CC(C)(C)C
CC50: 1.92 µM
//
compound: COc1ccc(C2CC(=O)C3=C(C2)NC(C)=C(C(=O)OC2CCCC2)C3c2ccc(F)cc2)cc1 (stereo not given)
CC50: > 100 µM
//
compound: Cn1nc(C(F)(F)F)c(C(=O)Nc2ccc(Cl)cc2)c1Sc1ccc(Cl)cc1
CC50: 34.8 µM
//
compound: COc1cccc(OC)c1C(=O)Oc1cccc2ccc(C)nc12
CC50: > 10 µM

---

- assay-info: NOVARTIS: Cytotoxicity against human hepatocellular carcinoma cell line (Huh7)
- Type: toxicity, cell-based, Huh-7
- setup-conditions: Huh7 cells (hepatocellular carcinoma cell line)

compound: COc1ccc(C2=NN(C(=O)CCC(=O)O)C(c3ccccc3F)C2)cc1 (stereo unspecified)
CC50: > 10 µM
//
compound: CCC1(C)CC(CCNCc2ccccc2O)(c2ccccc2OC)CCO1 (stereo unspecified)
CC50: 23.9 µM
//
compound: CCOC(=O)c1c(NC(=O)COc2ccccc2[N+](=O)[O-])sc(C(C)=O)c1C
CC50: > 10 µM
//
compound: COC(=O)c1cn([C@@H]2C[C@@H](C(=O)NCc3cccc(C(F)(F)F)c3)N(C3CCN(Cc4ccccc4)CC3)C2)nn1
CC50: > 100 µM
//
compound: Oc1c(C(Nc2ccccn2)c2cccc(Cl)c2Cl)ccc2cccnc12 (stereo unspecified)
CC50: > 100 µM
//
compound: O=c1c(NCc2ccco2)nc2cc(Cl)ccc2n1CCNc1ncc(C(F)(F)F)cc1Cl
CC50: 63.8 µM
//
compound: CN1C=C(c2ccc3ccccc3n2)C(c2c[nH]c3ccccc23)c2ccccc21 (stereo unspecified)
CC50: > 100 µM
//
compound: Cn1nc(C(C)(C)C)cc1C(=O)N1CCCN1C(=O)CNC(=O)c1ccco1
CC50: > 10 µM
//
compound: c1ccc(-c2nc(NCCCn3ccnc3)cc(-c3ccncc3)n2)cc1
CC50: > 10 µM
//
compound: O=C(Nc1ccc(Br)cc1C(=O)c1ccccc1)c1cc2nc(-c3cccs3)cc(C(F)(F)F)n2n1
CC50: > 100 µM
//
compound: O=C1c2ccccc2-n2c1nc1ccccc1c2=O
CC50: > 10 µM
//
compound: c1ccc(CNc2nc(Nc3ccccc3)nc3ccccc23)cc1
CC50: 13.5 µM
//
compound: COc1ccc2c(c1)c1c3n2CCN(Cc2ccccc2)C3=[N+](C)CC1
CC50: > 10 µM
//
compound: Cc1cc(N(C)C)cc(C)[n+]1OC(=O)N(c1ccccc1)c1ccccc1
CC50: > 10 µM
//
compound: COc1ccc(-n2c(SC)nc3sc4c(c3c2=O)CCN(Cc2ccccc2)C4)cc1
CC50: > 100 µM
//
compound: Cc1ccn2c(NC(C)(C)CC(C)(C)C)c(-c3ccccc3OS(=O)(=O)CC34CCC(CC3=O)C4(C)C)nc2c1 (stereo unspecified)
CC50: > 10 µM
//
compound: COc1ccc(C2NCCc3c2[nH]c2ccccc32)cc1CSc1nc2ccccc2[nH]1 (stereo unspecified)
CC50: 20.4 µM
//
compound: CC(=O)c1ccc(OCc2cc(C(=O)N3CCCCC3c3cccnc3)no2)cc1 (stereo unspecified)
CC50: > 100 µM
//
compound: COc1ccccc1C(=O)NNC(=O)c1ccccn1
CC50: 8.7 µM
//
compound: COc1cccc(C2C(C(=O)Nc3ccc(C)cc3C)=C(C)Nc3c(C(=O)Nc4ccccc4)cnn32)c1 (stereo unspecified)
CC50: > 100 µM
//
compound: OC(COc1ccccc1CNCCN1CCCC1)CN1CCc2ccccc2C1 (stereo unspecified)
CC50: 63.4 µM

Entry source: ChEMBL document CHEMBL1156829
